# target: human KHK-C (Homo sapiens (Human), UniProt P50053)
# Sequence (P50053 whole entry): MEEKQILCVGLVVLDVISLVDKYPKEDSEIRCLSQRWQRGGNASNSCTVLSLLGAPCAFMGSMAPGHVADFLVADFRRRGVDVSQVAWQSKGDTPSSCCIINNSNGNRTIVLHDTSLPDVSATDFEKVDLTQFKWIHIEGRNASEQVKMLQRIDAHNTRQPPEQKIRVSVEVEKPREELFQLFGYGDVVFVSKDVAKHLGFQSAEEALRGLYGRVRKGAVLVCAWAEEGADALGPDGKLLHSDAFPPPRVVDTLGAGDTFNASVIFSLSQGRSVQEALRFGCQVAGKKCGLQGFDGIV
# measurement_protocol: KHK Biochemical Assay (IC50), ADP-Glo, KHK-C
# condition_set: average of at least two separate assays
pIC50: −log10 of the molar value.
recorded_endpoint: pIC50

a. C[C@H]1CCN1c1nc(-c2cccc(NS(C)(=N)=O)c2)c2c(n1)C(F)(F)CC2 (some centres unmarked) [Example 684]
b. C[C@H]1CCN1c1nc(-c2cccc(N=[S@](C)(N)=O)c2)c2c(n1)C(F)(F)CC2 (single isomer, unassigned) [Example 692]
Would you let me know which has the greater pIC50 value, a or b ? Give the label of your selection. a
(a: 8.42, b: 8.08)

I. C[C@H]1CCN1c1nc2c(c(-c3nccn3C)n1)CCC2 [Example 394]
II. C[C@@H]1N(c2nc(-c3ccc4c(c3)S(=O)(=O)C[C@@H]4NS(C)(=O)=O)c3c(n2)C(F)(F)CC3)CC1(F)F (single isomer, unassigned) [Example 681]
Given the listed items, does I or II have the lesser reported pIC50? Give the label of your selection. I
(I: 6.77, II: 9.30)

a. C[C@H]1[C@H](O)CN1c1nc(-c2ccc3c(c2)OC[C@H]3NS(C)(=O)=O)c2c(n1)C(F)(F)CC2 [Example 467]
b. C[C@H]1[C@H](O)CN1c1nc(-c2ccc3c(c2)CN(S(C)(=O)=O)CC3)c2c(n1)C(F)(F)CC2 [Example 611]
Given the listed items, does a or b have the lesser reported pIC50? Give the label of your selection. b
